Origin of values: patent US20260293896A1

Tested on: rapeseed
Procedure Text: Evaluation Example 5: Comparison of Elongated Plant Height of Rapeseed
Type: in vivo
Cond: petri dish, 5 mL, 25° C, 7th day after seeding, EGT 0.5 mM and/or component (A) 0.5 mM
Recorded Endpoint: Elongated plant height, ratio to untreated control
Just the number, please.

Query: Lab note: need Elongated plant height, ratio to untreated control with rapeseed for entry NC(=O)CC[C@H](N)C(=O)O , please look it up.
Result: 1.1

Query: Proceed to CSCC[C@H](N)C(=O)O
Result: 1.0

Query: CC(=O)O ?
Result: 1.1

Query: Queued: N[C@@H](Cc1ccccc1)C(=O)O
Result: 1.1

Query: Also need N[C@@H](Cc1c[nH]c2ccccc12)C(=O)O , thanks.
Result: 0.5

Query: # repeat for C[N+](C)(C)[C@@H](Cc1c[nH]c(=S)[nH]1)C(=O)[O-] [Comparative Example 13, L-(+)-ergothioneine]
Result: 1.1
